Provide the reported switch fluorescence ratio of each item.
Tested on: ATP;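 note: ATP exposure 15 min at 22 °C before imaging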
Assay: switch fluorescence ratio, 500 uM ATP over buffer (Cy3 cluster intensity, sum of 5 cycles each) (fold (ratio)); higher = stronger signal-on switching upon ATP binding; sequences stand for … in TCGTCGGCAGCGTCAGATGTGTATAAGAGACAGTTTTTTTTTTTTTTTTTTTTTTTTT…TC
Settings: aptamer strand: ATP DNA aptamer (quencher-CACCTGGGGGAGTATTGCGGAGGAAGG + anchor), 100 nM annealed; ATP concentration: 500 uM
Please reply with the number alone, leaving off any unit.

Q: Read off the recorded switch fluorescence ratio for ATCTGGGGTT
A: 1.04

Q: Read off the recorded switch fluorescence ratio for AATCGGGCCA
A: 0.987

Q: Read off the recorded switch fluorescence ratio for TTTATGCAGC
A: 1.12

Q: Read off the recorded switch fluorescence ratio for TAATTGTAAT
A: 1.04

Q: Read off the recorded switch fluorescence ratio for GTTTAGGGGA
A: 0.999
